Sourced from ChEMBL document CHEMBL1142491

Record form. Attribute: Activity. Fill in for each entry.
- PROTOCOL DESCRIPTION: Stability in phosphate buffer saline assessed as amount of parent drug released from cattle bone meal powder over 24 hrs
- Format: ADME
Give the value, in units of %, as a plain number.

Field request: Activity | item: COc1c(N2CCN(CCC(=O)c3ccc(OCCCC(P(=O)(O)O)P(=O)(O)O)cc3)C(C)C2)c(F)cc2c(=O)c(C(=O)O)cn(C3CC3)c12 (stereo unspecified) 2.3

Return reported Activity; argument: `COc1c(N2C[C@@H]3CCCN(CC(P(=O)(O)O)P(=O)(O)O)[C@@H]3C2)c(F)cc2c(=O)c(C(=O)O)cn(C3CC3)c12` 0.01

May I ask what Activity has been recorded for `COc1c(N2C[C@@H]3CCCN(C(=O)CC(P(=O)(O)O)P(=O)(O)O)[C@@H]3C2)c(F)cc2c(=O)c(C(=O)O)cn(C3CC3)c12` ? 0.01

Given the entry COc1c(N2CCN(Cc3oc(=O)oc3-c3ccc(P(=O)(O)CP(=O)(O)O)cc3)C(C)C2)c(F)cc2c(=O)c(C(=O)O)cn(C3CC3)c12 (stereo unspecified) , report its measured Activity. 7.5

Which Activity is listed for COc1c(N2CCN(C(=O)OC(C)OC(=O)CCCC(=O)NC(P(=O)(O)O)P(=O)(O)O)C(C)C2)c(F)cc2c(=O)c(C(=O)O)cn(C3CC3)c12 (stereo unspecified) ? 1.5

I am curious: what Activity value has been reported for COc1c(N2CCN(C(=O)OC(C)OC(=O)CCCC(P(=O)(O)O)P(=O)(O)O)C(C)C2)c(F)cc2c(=O)c(C(=O)O)cn(C3CC3)c12 (stereo unspecified) ? 0.7

---

- PROTOCOL DESCRIPTION: Stability in phosphate buffer saline assessed as amount of parent drug released from cattle bone meal powder over 24 hrs
- Type: ADME
RECORDED ENDPOINT: Activity (%)
Kindly answer with a numeric value in %, unit omitted.

// lookup Activity for COc1c(N2CCN(C(=O)CC(C)(C)c3cc(P(=O)(O)CP(=O)(O)O)ccc3OC(=O)C(C)C)C(C)C2)c(F)cc2c(=O)c(C(=O)O)cn(C3CC3)c12 (stereo not given) 0.8

Endpoint output: Activity of COc1c(N2C[C@@H]3CCCN(C(=O)OC(C)OC(=O)CCCC(=O)NC(P(=O)(O)O)P(=O)(O)O)[C@@H]3C2)c(F)cc2c(=O)c(C(=O)O)cn(C3CC3)c12 (stereo not given in full) . Value? 1.2

Request the reported Activity associated with COc1c(N2CCN(C(=O)CC(P(=O)(O)O)P(=O)(O)O)C(C)C2)c(F)cc2c(=O)c(C(=O)O)cn(C3CC3)c12 (stereo not given) 0.01

For COc1c(N2CCN(C(=O)OCOC(=O)CCC(P(=O)(O)O)P(=O)(O)O)C(C)C2)c(F)cc2c(=O)c(C(=O)O)cn(C3CC3)c12 (stereo not given) , what is its reported Activity? 13.4

Find the recorded Activity belonging to `O=C(O)c1cn(C2CC2)c2cc(N3CCN(CC(P(=O)(O)O)P(=O)(O)O)CC3)c(F)cc2c1=O` and report it. 0.01

---

Please go through the items and note down their Activity.
- Test system: Bone
- PROTOCOL DESCRIPTION: Binding affinity to bone assessed as drug level bound to cattle bone meal powder by fluorescence assay
- Assay type: tissue-based
- Design: concentration or dose not given beside the values
- EXPERIMENTAL PARAMETERS: Bos taurus; Bone element
Hi! Could you send only the number? It should be in %, unit omitted.

Any idea what Activity was measured for `O=C(O)c1cn(C2CC2)c2cc(N3CCNCC3)c(F)cc2c1=O` ? 0.01

What value of measured Activity is listed for COc1c(N2CCN(C(=O)CC(C)(C)c3cc(P(=O)(O)CP(=O)(O)O)ccc3OP(=O)(O)O)C(C)C2)c(F)cc2c(=O)c(C(=O)O)cn(C3CC3)c12 (stereo not given) ? 0.01

Item COc1c(N2CCN(C(=O)OC(C)OC(=O)CCCC(P(=O)(O)O)P(=O)(O)O)C(C)C2)c(F)cc2c(=O)c(C(=O)O)cn(C3CC3)c12 (stereo not given) has what recorded Activity? 88.4

Find the recorded Activity belonging to COc1c(N2CCNC(C)C2)c(F)cc2c(=O)c(C(=O)O)cn(C3CC3)c12 (stereo not given) and report it. 0.01

If you can, please state the reported Activity value of COc1c(N2CCN(Cc3oc(=O)oc3-c3ccc(P(=O)(O)CP(=O)(O)O)cc3)C(C)C2)c(F)cc2c(=O)c(C(=O)O)cn(C3CC3)c12 (stereo not given) . 63.7
